Measured metric: IC50 (nM)
Output spec: scalar in nM, unitless text.

Qu. Hello, I am looking for reported IC50 with FGFR1 kinase (Homo sapiens) for COc1cc(CCc2cnc3ccn(S(=O)(=O)c4cn(C)cn4)c3n2)c(F)c(OC)c1 [Compound 32] . Could you help?
Ans. 0.4

Qu. Hello, I am looking for reported IC50 with FGFR1 kinase (Homo sapiens) for COc1cc(OC)c(Cl)c(CCc2cnc3ccn(S(=O)(=O)c4ccccc4)c3n2)c1Cl [Compound 7] . Could you help?
Ans. 14

---

Experiment: In vitro metabolic stability, human liver microsomal intrinsic clearance
Format: in vitro ADME
Conditions: liver microsomes, pH 7.4
Exercise: state measured microsomal CLint at 1 μmol/L for each of the compounds provided.
Could you write the number and then its unit?

Qu. # query: microsomal CLint at 1 μmol/L of entry COc1cc(OC)c(Cl)c(CCc2cnc3ccn(S(=O)(=O)c4c[nH]cn4)c3n2)c1Cl
Ans. 50 µL/min/mg

Qu. # query: microsomal CLint at 1 μmol/L of entry COc1cc(CCc2cnc3ccn(S(=O)(=O)c4c[nH]cn4)c3n2)cc(OC)c1
Ans. 38 µL/min/mg

Qu. # query: microsomal CLint at 1 μmol/L of entry COc1cc(CCc2cnc3ccn(S(=O)(=O)c4cn(C)cn4)c3n2)cc(OC)c1
Ans. 212 µL/min/mg
